experiment: Binding affinity at human histamine H3
pKi: −log10 of the molar value.
So basically: pKi at 7 or higher? That is true. Lower than 7? That is false.

Solved cases below.
compound	classification
CSc1ccc(C2CN(C)Cc3cc(Oc4ccnc(CN5CCCCC5)c4)ccc32)cc1 (stereo not given)	false
CSc1ccc(C2CN(C)Cc3cc(Oc4ccc(CN5CCCCC5)cn4)ccc32)cc1 (stereo not given)	true
CSc1ccc(C2CN(C)Cc3cc(Oc4ccc(CN5CCCCC5)cc4)ccc32)cc1 (stereo not given)	true

## Input # bool: pKi of CSc1ccc(C2CN(C)Cc3cc(Oc4ncc(CN5CCCCC5)s4)ccc32)cc1 (stereo not given) >= 7
## Output true

## Input # bool: pKi of CSc1ccc(C2CN(C)Cc3cccc(Oc4ccnc(CN5CCCCC5)c4)c32)cc1 (stereo not given) >= 7
## Output false

## Input # bool: pKi of CSc1ccc(C2CN(C)Cc3cc(Oc4nc(CN5CCOCC5)cs4)ccc32)cc1 (stereo not given) >= 7
## Output false

## Input # bool: pKi of CSc1ccc(C2CN(C)Cc3cc(Oc4ccc(CN5CCCCC5)nc4)ccc32)cc1 (stereo not given) >= 7
## Output true

## Input # bool: pKi of CSc1ccc(C2CN(C)Cc3cc(Oc4nc(CN5CCCCC5)cs4)ccc32)cc1 (stereo not given) >= 7
## Output true

## Input # bool: pKi of CSc1ccc(C2CN(C)Cc3cc(Oc4cccc(CN5CCCCC5)n4)ccc32)cc1 (stereo not given) >= 7
## Output true
